Reference source for all entries: paper PMC12615753

# assayed.system: hTAS1R1 Y220A/rTAS1R3 (UniProt Q7RTX1+Q923K1, Y220A)
# Construct: UniProtKB number Q7RTX1–1); The cDNA coding region of rTAS1R3 was synthesized with optimized-codon usage for human expression
# Sequence (Q7RTX1 21-841 Y220A): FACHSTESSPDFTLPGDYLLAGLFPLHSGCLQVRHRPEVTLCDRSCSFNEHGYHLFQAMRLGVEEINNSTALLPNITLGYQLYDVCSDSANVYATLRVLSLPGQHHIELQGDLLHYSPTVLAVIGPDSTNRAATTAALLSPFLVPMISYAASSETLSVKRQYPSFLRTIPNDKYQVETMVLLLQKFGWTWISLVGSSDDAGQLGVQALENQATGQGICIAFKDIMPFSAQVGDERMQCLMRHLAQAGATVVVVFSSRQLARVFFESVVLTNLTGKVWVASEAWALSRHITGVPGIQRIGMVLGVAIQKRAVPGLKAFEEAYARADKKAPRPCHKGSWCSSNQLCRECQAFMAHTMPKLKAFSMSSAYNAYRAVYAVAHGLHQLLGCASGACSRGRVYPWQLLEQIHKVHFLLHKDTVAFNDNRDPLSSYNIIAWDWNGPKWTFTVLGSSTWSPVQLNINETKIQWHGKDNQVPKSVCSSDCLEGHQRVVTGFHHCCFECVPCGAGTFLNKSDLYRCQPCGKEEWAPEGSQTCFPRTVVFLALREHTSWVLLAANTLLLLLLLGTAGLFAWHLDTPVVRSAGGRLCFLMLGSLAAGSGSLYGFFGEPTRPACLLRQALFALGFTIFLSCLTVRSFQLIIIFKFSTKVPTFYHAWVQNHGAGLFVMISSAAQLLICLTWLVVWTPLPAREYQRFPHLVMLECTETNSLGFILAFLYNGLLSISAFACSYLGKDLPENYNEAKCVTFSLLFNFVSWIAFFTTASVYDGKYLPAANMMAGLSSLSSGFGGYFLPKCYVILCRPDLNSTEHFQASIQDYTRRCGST
# Sequence (Q923K1 21-858): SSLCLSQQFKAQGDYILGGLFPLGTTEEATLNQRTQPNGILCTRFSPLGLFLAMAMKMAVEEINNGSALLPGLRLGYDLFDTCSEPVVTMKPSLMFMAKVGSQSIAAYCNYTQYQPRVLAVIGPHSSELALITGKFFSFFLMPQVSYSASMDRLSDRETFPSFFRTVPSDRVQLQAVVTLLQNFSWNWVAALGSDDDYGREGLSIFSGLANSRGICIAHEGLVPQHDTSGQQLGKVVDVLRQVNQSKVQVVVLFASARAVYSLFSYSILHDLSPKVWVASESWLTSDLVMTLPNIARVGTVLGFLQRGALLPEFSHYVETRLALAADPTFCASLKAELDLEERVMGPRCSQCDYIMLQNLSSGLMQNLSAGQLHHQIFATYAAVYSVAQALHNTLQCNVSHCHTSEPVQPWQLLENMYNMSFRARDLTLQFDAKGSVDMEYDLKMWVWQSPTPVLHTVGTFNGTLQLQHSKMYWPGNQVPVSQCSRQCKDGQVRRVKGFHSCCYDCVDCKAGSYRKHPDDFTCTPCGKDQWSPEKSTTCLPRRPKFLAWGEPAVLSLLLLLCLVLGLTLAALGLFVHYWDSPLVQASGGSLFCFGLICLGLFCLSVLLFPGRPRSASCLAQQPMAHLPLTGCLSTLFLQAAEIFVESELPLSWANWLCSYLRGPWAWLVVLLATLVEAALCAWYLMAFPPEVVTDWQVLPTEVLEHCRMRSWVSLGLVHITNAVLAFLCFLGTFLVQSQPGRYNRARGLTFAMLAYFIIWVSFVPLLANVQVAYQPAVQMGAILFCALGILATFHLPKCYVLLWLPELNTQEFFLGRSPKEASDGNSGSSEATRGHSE
# test.name: Calcium assay, hTAS1R1 mutant co-expressed with rTAS1R3
# Text: Chimeric Gα proteins, such as Gα16Gust44, Gα16Gi3 or Gα15i2, are widely used in the functional expression of TAS1R receptors ([Backes et al., 2015]; [Suess et al., 2015]; [Toda et al., 2021], [Toda et al., 2013], [Toda et al., 2018]; [Zhang et al., 2008]). […]
measurement.type: EC50

Reported EC50 ( N[C@@H](CCC(=O)N[C@@H](CS)C(=O)NCC(=O)O)C(=O)O ) = > 30 mM
